Hello, the source for this data is paper PMC12207589, in case you need it.

# TARGET UNDER TEST: human olfactory receptor OR1A1 (Homo sapiens)
# Construct: expressed in transfected cells; host or cells: HEK293T-derived cells
# Sequence (Q9P1Q5 whole entry): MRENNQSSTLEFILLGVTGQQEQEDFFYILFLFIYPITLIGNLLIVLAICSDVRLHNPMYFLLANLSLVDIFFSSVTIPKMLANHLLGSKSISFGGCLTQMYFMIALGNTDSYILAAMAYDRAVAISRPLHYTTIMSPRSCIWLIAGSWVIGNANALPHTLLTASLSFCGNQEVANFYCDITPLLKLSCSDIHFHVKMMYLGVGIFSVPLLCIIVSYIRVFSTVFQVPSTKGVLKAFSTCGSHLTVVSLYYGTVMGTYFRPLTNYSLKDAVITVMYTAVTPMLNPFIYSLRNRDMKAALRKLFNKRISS
# EXPERIMENT: Dual-Glo luciferase assay of olfactory receptor activation (agonist dose-response)
# Format: cell-based
# MEASUREMENT SETUP: luciferase assay, normalized responses
ASSAY READOUT: agonist activity / response of OR1A1 (in words)

{"columns": ["MOL SMILES", "RESULT"],
 "data": [
  ["CC(=O)c1cccc(C#CC#CC(C)(C)C)c1", "activated OR1A1"],
  ["CC(=O)c1ccc(C#CC#CC(C)(C)C)cc1", "activated OR1A1"]
]}
